- METHOD: cAMP Responsive Elements (CRE) small molecule antagonists, cell-based qHTS assay (AID 1963591)
- CONDITION_DETAILS: CRE-bla HEK293T, beta-lactamase FRET ratio; series mostly up to 92.4 µM
Results filed as inconclusive are left out. The source made the active and inactive calls. The call rests on the fitted dose curve; in most records, active means well fitted inhibition curve with a large enough effect in the signal ratio in the repeat runs (not every such curve was filed as active); inconclusive means weak or mixed curves, or effect the other way; inactive means flat fitted curve, though single readings scatter; the % refers to the signal ratio.
Outcomes: True (active), False (inactive)

> print(dat)
                                    compound  discrete.label
 1  C[C@@H]1CC[C@H]2[C@@H](C)C(=O)O[C@@H]3O[C@@]4(C)CC[C@@H]1[C@]32OO4           False
 2  CN1CCC(O)(c2ccc(F)cc2)C(C(=O)c2ccc(F)cc2)C1 (stereo unspecified)           False
 3  CC(C)(C)N(NC(=O)c1ccc(Cl)cc1)C(=O)c1ccccc1           False
 4                        CCCCCC[N+](=O)[O-]           False
 5                      CCC[N+](CCC)(CCC)CCC           False
 6  CC(Cc1ccccc1)NCCn1cnc2c1c(=O)n(C)c(=O)n2C (stereo unspecified)           False
 7  CC(C(O)c1ccccc1)N(C)C/C=C/c1ccccc1 (stereo unspecified)           False
 8            CCCCCCCCCC[N+](C)(C)CCCCCCCCCC            True
 9                NP(N)(=O)NC(=O)c1ccc(F)cc1           False
10                                 Cl/C=C\Cl           False
11                            Nc1cc(Cl)ccc1O           False
12                                     ClCBr           False
13                            CCCCCCCC(=O)Cl           False
14                            CCOP(=S)(S)OCC           False
15              S=C(SSC(=S)N1CCCCC1)N1CCCCC1            True
16  COC1CC(=C(c2cccs2)c2cccs2)C[N+](C)(C)C1 (stereo unspecified)           False
17              CCc1cc(OC)c(C[C@H](C)N)cc1OC           False
18                c1coc(-c2nc3ccccc3[nH]2)c1           False
19                                BrCCCCCCBr           False
20                                   ClCCCCl           False
21  CN1CCN(C(=O)O[C@H]2c3nccnc3C(=O)N2c2ccc(Cl)cn2)CC1           False
22  CCCC[P+](CC)(CCCC)CCCC (tested in a mixture with another compound)           False
23        COc1ccc(-c2ccccc2)cc1NNC(=O)OC(C)C           False
24                                 ClC(Cl)Br           False
25           CC(C)N(C(=O)SC/C(Cl)=C/Cl)C(C)C           False
26                       COC(=O)C1=CCCN(C)C1           False
27  CC(C)[C@@H](Nc1ccc(C(F)(F)F)cc1Cl)C(=O)OC(C#N)c1cccc(Oc2ccccc2)c1 (stereo partly specified)           False
28  CO/N=C(/C1=NOCCO1)c1ccccc1Oc1ncnc(Oc2ccccc2Cl)c1F           False
29  COC(=O)N(C(=O)N1COC2(C(=O)OC)Cc3cc(Cl)ccc3C2=N1)c1ccc(OC(F)(F)F)cc1 (stereo unspecified)           False
30  CC(Cc1ccc2c(c1)OCO2)NO (stereo unspecified)           False
31                        Nc1ccccc1-c1ccccc1           False
32  CCOP(=S)(Oc1ccc([N+](=O)[O-])cc1)c1ccccc1 (stereo unspecified)           False
33  COC(=O)C(C)Oc1ccc(Oc2ccc(Cl)cc2Cl)cc1 (stereo unspecified)           False
34                  c1ccc2nc(N3CCNCC3)ccc2c1           False
35                        CCCCOP(=O)(O)OCCCC           False
36                              COP(N)(=S)OC           False
37  CCOC(=O)C(SP(=S)(OC)OC)c1ccccc1 (stereo unspecified)           False
38          CC(C)CC(C)N (stereo unspecified)           False
39                                        CN           False
40                                  C1CCNCC1           False
41  C=CCN1CC[C@]23c4c5ccc(O)c4O[C@H]2C(=O)CC[C@@]3(O)[C@H]1C5           False

---

- METHOD: p53 small molecule agonists, cell-based qHTS assay with rat liver microsomes: qHTS cell viability counter screen (AID 1963580); further: nearly all actives have a fitted effect of over 45% in size
- CONDITION_DETAILS: p53RE-bla HCT-116 + rat microsomes, ATP viability, 16 h; series mostly up to 66 µM
Results filed as inconclusive are left out. The source made the active and inactive calls. Calls come from the whole dose curve.
Outcomes: true for active, false for inactive

COMPOUND	DISCRETE_LABEL
CC(O)C#N (stereo unspecified)	false
CC[C@H](C)[C@H]1O[C@]2(C=C[C@@H]1C)C[C@@H]1C[C@@H](C/C=C(\C)[C@@H](O[C@H]3C[C@H](OC)[C@@H](O[C@H]4C[C@H](OC)[C@@H](NC)[C@H](C)O4)[C@H](C)O3)[C@@H](C)/C=C/C=C3\CO[C@@H]4[C@H](O)C(C)=C[C@@H](C(=O)O1)[C@]34O)O2	true
CCOP(=S)(OCC)SCCl	false
[CH3][Hg][Cl]	false
C[C@@H](N)[C@@H](O)c1ccccc1	false
N#C/C(N)=C(/N)C#N	false

---

- METHOD: Nuclear factor erythroid 2-related factor 2/antioxidant responsive element (Nrf2/ARE) small molecule agonists: qHTS cell viability counter screen in human keratinocytes (AID 1919968); further: nearly all actives have a fitted effect of over 55% in size
- CONDITION_DETAILS: KeratinoSens HaCaT ARE cells viability, CellTiter-Fluor, 24 h; series mostly up to 92.4 µM
Results filed as inconclusive are left out. The source made the active and inactive calls. Calls come from the whole dose curve; as a rule, active = well fitted cell-killing curve with a large enough effect in the repeat runs; inconclusive = weak or mixed curves, or effect the other way; inactive = flat fitted curve, though single readings scatter.
Outcomes: active, inactive

> print(dat)
                                    compound  discrete.label
 1             CN(N=O)c1ccc([N+](=O)[O-])cc1        inactive
 2                        O=C(O)c1cccc(Cl)c1        inactive
 3  O=C(CCCN1CCC2(CC1)C(=O)NCN2c1ccccc1)c1ccc(F)cc1        inactive
 4  CC(C)(C)NCC(O)c1ccccc1Cl (stereo unspecified)        inactive
 5                               IC(I)=C(I)I          active
 6                                 ClC(Cl)Br        inactive
 7                  [Cl][Sn]([Cl])([Cl])[Cl]        inactive
 8  CCCSP(=S)(OCC)Oc1ccc(Cl)cc1Cl (stereo unspecified)        inactive
 9  CCCC(C)C1(CC)C(=O)N=C(S)NC1=O (stereo unspecified)        inactive
10  O=C1CN=C(c2ccccc2)c2cc([N+](=O)[O-])ccc2N1        inactive
11                     Clc1cccc(SC2CCNCC2)n1        inactive
12  CC(Oc1ccc(Oc2ncc(C(F)(F)F)cc2Cl)cc1)C(=O)O (stereo unspecified)        inactive
13                CN(C)c1ccc(N=Nc2ccccc2)cc1        inactive
14                   Cc1cc(C)nc(Nc2ccccc2)n1        inactive
15  O=C1OC(=O)C2C1C1(Cl)C(Cl)=C(Cl)C2(Cl)C1(Cl)Cl (stereo unspecified)        inactive
16   O=C(O)CC(Cl)C(=O)O (stereo unspecified)        inactive
17     Cc1ccccc1OP(=O)(Oc1ccccc1C)Oc1ccccc1C        inactive
18                             ClC(Cl)(Cl)Cl        inactive
19                 CCN(CC)CCc1c[nH]c2ccccc12        inactive
20                                 Cl/C=C\Cl        inactive
21                          N#C/C=C/c1ccccc1        inactive
22                                Clc1ccccc1        inactive
23                   c1cncc([C@@H]2CCCCN2)c1        inactive
24                    CC(Cl)(Cl)[N+](=O)[O-]        inactive
25                   Nc1ccc([N+](=O)[O-])cc1          active
26                                ClCCCCCCCl        inactive
27  CC(O)C(=O)[O][Hg][c]1ccccc1 (stereo unspecified)          active
28                     Clc1ccccc1-c1ccccc1Cl          active
29                CNC(=O)Oc1cccc(N=CN(C)C)c1        inactive
30                        CCCCCC[N+](=O)[O-]        inactive
31                          CN(C)c1ccc(N)cc1          active
32  CC(C)[C@H](C(=O)OC(C#N)c1cccc(Oc2ccccc2)c1)c1ccc(OC(F)F)cc1 (stereo partly specified)        inactive
33  CCCCC(CC)COC(=O)OOC(C)(C)C (stereo unspecified)        inactive
34                                C=CC(=O)OC        inactive
35  Cc1c([N+](=O)[O-])cc2c(c1[N+](=O)[O-])C(C)(C)CC2(C)C        inactive
36                                  NNC(N)=O        inactive
37  Oc1ccc2[nH]cc(CCCCN3CC=C(c4ccccc4)CC3)c2c1        inactive
38                                  C1CCNCC1        inactive
39  Nc1cc2c3c(c1)C(c1ccccc1)=N[C@@H](NC(=O)c1cccnc1)C(=O)N3CC2        inactive
40                                       CNN        inactive
41  COC(=O)c1ccccc1S(=O)(=O)NC(=O)Nc1nc(C)nc(OC)n1        inactive
42                        [Cl-].[Cl-].[Sn+2]        inactive
43                           Cc1nc(N)nc(N)n1        inactive
44                      FC(Cl)(Cl)C(F)(Cl)Cl        inactive
45          CC(=O)[O-].CC(=O)[O-].O.O.[Cd+2]          active
46                            BrCC(Br)(Br)Br        inactive
47                          Oc1c(I)cc(I)cc1I          active
48       N#Cc1sc2c(=O)c3ccccc3c(=O)c=2sc1C#N          active
49  CCO/N=C(\CC)C1=C(O)CC(c2c(C)cc(C)cc2C)CC1=O (stereo unspecified)        inactive
50           Cc1ncc(C[n+]2csc(CCO)c2C)c(N)n1        inactive
51  CN1C2CCC(C)(C)C1CC(OC(=O)C(O)(c1cccs1)c1cccs1)C2 (stereo unspecified)        inactive
